meta.source: patent US4450167A

# assaySystem: benzodiazepine receptors
# procedureDetails: Affinity for benzodiazepine receptors (3H Diazepam displacement, rat cortex membranes)
# conditionInfo: rat brain cortex membranes, 3H Diazepam 10^-9 moles, 0° C., 30 minutes; read-out: CI50, concentration inhibiting by 50% the specific bonding of 3H diazepam
IC50 reference
observable: IC50 (nM)

>>> observedmeasurement("O=C(Nc1ccc(O)cc1)c1cnc2ccccc2c1O")
4.4
>>> observedmeasurement("CCCNC(=O)c1cnc2ccccc2c1O")
1.2
>>> observedmeasurement("CCNC(=O)c1cnc2ccccc2c1O")
11
>>> observedmeasurement("COc1cccc(NC(=O)c2cnc3ccccc3c2O)c1")
6.6
>>> observedmeasurement("CCOc1ccc(NC(=O)c2cnc3ccccc3c2O)cc1")
40
>>> observedmeasurement("COc1ccc(NC(=O)c2c(C)nc3ccccc3c2O)cc1")
23
>>> observedmeasurement("COc1ccccc1NC(=O)c1cnc2ccccc2c1O")
54
>>> observedmeasurement("COc1ccc(NC(=O)c2cnc3ccccc3c2O)cc1")
7.5
>>> observedmeasurement("CCCCNC(=O)c1cnc2ccccc2c1O")
3.7
>>> observedmeasurement("CCCCCCNC(=O)c1cnc2ccccc2c1O")
6.7
